# experimental target: pERK1/2 (Thr202/Tyr204), NCI-1H358 (KRAS G12C) (Homo sapiens, UniProt P01116, G12C)
# Construct: pERK1/2 HTRF read-out
# Sequence (P01116 1-188 isoform P01116-2 G12C): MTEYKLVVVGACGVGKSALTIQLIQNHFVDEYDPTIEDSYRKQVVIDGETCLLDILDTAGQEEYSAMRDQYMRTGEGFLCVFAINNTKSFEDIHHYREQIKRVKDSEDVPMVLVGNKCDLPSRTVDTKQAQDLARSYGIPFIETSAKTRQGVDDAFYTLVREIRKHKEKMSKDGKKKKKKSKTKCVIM
# procedure summary: Assay of intracellular pERK1/2 (Thr202/Tyr204) phosphorylation in NCI-H358 cells (KRAS G12C)
# Assay type: cell-based
# measurement context: pERK1/2, 2 days, read-out: NCI-H358 (KRAS G12C) IC50
I'd appreciate it if you could supply pIC50 values for the items below.
Numbers only, as −log10 of the molar value.

1. Cc1cc2[nH]ncc2c(-c2nc3c4c(nc(OC[C@@]56CCCN5C[C@H](F)C6)nc4c2F)N(C(C)c2cccnc2N)[C@H]2CCC[C@H]2O3)c1C(F)(F)F (some centres unmarked)	7.22

Items follow; give pIC50 for each.
1. Cc1cc(N)cc(-c2nc3c4c(nc(OC[C@@H]5C[C@@H](F)CN5C)nc4c2F)N(C(C)c2cccnc2N)CCO3)c1C(F)(F)F (some centres unmarked) [Compound 73]
2. [2H]C1([2H])CC[C@@]2(C([2H])([2H])Oc3nc4c5c(nc(-c6cc(N)cc(C)c6C(F)(F)F)c(F)c5n3)OCCN4C(C)c3cccnc3N)C[C@@H](F)CN12 (some centres unmarked) [Compound 105]

Return:
1. 9.05
2. 9.40

====

Exercise: for every item that follows, state its recorded pIC50.
# experimental target: pERK1/2 (Thr202/Tyr204), PANC-1 (KRAS G121D) (Homo sapiens, UniProt P01116, G12D)
# Construct: pERK1/2 HTRF read-out
# Sequence (P01116 1-188 isoform P01116-2 G12D): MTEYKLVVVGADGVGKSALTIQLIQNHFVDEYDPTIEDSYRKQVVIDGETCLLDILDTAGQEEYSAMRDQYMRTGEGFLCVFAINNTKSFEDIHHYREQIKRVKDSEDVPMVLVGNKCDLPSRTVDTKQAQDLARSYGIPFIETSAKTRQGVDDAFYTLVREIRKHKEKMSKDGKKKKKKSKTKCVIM
# procedure summary: Assay of intracellular pERK1/2 (Thr202/Tyr204) phosphorylation in PANC-1 cells (KRAS G12D)
# Format: cell-based
# measurement context: pERK1/2, 2 days, read-out: PANC-1 (KRAS G12D) IC50
Answers are plain numbers, as −log10 of the molar value.

1. Cc1c(F)c(N)cc(-c2nc3c4c(nc(OC[C@@]56CCCN5C[C@H](F)C6)nc4c2F)N(C(C)c2cccnc2N)C[C@H](C)O3)c1C(F)(F)F (single isomer, unassigned) [Compound 254]	7.37

For every item below, please supply its pIC50.
1. CC(c1cccnc1N)N1c2nc(OC[C@@]34CCCN3C[C@H](F)C4)nc3c(F)c(-c4cc(N)cc(Cl)c4C4CC4)nc(c23)OC[C@@H]1C (some centres unmarked)
2. [2H]C1([2H])CC[C@@]2(C([2H])([2H])Oc3nc4c5c(nc(-c6cc(N)cc(C)c6C(F)(F)F)c(F)c5n3)OCCN4C(C)c3cccnc3N)C[C@@H](F)CN12 (single isomer, unassigned) [Compound 115]
3. Cc1cc(N)cc(-c2nc3c4c(nc(OC[C@@H]5C[C@@H](F)CN5C)nc4c2F)N(C(C)c2cccnc2N)CCO3)c1C(F)(F)F (single isomer, unassigned) [Compound 80]
4. CC(c1cccnc1N)N1CCOc2nc(-c3cc(O)cc(Cl)c3C3CC3)c(F)c3nc(OC[C@@]45CCCN4C[C@H](F)C5)nc1c23 (single isomer, unassigned) [Compound 44]
5. Cc1cc(N)cc(-c2nc3c4c(nc(OC[C@@]56CCCN5C[C@H](F)C6)nc4c2F)N(C(C)c2cccnc2N)CCO3)c1C(F)(F)F (single isomer, unassigned) [Compound 61]
6. CC(c1cccnc1N)N1c2nc(OC[C@@]34CCCN3C[C@H](F)C4)nc3c(F)c(-c4cc(N)c(F)c(Cl)c4C(F)(F)F)nc(c23)OC[C@@H]1C (single isomer, unassigned) [Compound 269]

Return:
[9.52, 9.05, 7.72, 8.52, 9.22, 9.22]

Could you report pIC50 for every entry in the following list?
1. [2H][C@]1(F)CN2CCC[C@@]2(COc2nc3c4c(nc(-c5cc(N)c(F)c(C)c5C(F)(F)F)c(F)c4n2)OCCN3C(C)c2cccnc2N)C1 (single isomer, unassigned)
2. [2H]C1([2H])CC[C@@]2(C([2H])([2H])Oc3nc4c5c(nc(-c6cc(N)c(F)c(C)c6C(F)(F)F)c(F)c5n3)OCCN4C(C)c3cccnc3N)C[C@@]([2H])(F)CN12 (single isomer, unassigned; diastereomer 1)

Return:
1. 8.70
2. 9.00
